Tested on: SNB-75
Test: NCI tumour cell line growth inhibition, 48 h
Active and inactive are the calls of the source. Rule as the data show it: active = GI50 up to about 1.1 µM and inactive = higher.
observable: GI50

Sample records with GI50:
COC(=O)[C@@H]1C=C[C@H](NC(C)=O)C1: > 100 µM (inactive)
COc1cc(C2c3cc4c(cc3[C@H](OCCN(C)C)[C@@H]3COC(=O)C23)OCO4)cc(OC)c1O (stereo not given in full): 0.307 µM (active)
Cc1ccc(S(=O)(=O)N2CCNCCN(S(=O)(=O)c3ccc(C)cc3)CCNCC2)cc1: 20.2 µM (inactive)
COc1cc2ccc1OCc1cccc(n1)COc1ccc(cc1OC)/C=N\CCNCC/N=C\2: 30.5 µM (inactive)
O=c1c2sc3nc(NCCN4CCCCC4)ncc3c2ncn1-c1ccccc1: 45.3 µM (inactive)

Lookup result for `O=[N+]([O-])c1ccccc1S(=O)(=O)c1cccc2c1NCCC2` ; measured GI50: 14.8 µM (inactive)

According to the records, this compound Nc1ncnc2oc(C3OC(COC(=O)c4ccccc4)C(OC(=O)c4ccccc4)C3OC(=O)c3ccccc3)nc12 (stereo not given) displays GI50 of 29.2 µM (inactive)

For COc1cccc(C2C(C(=O)O)=C(CO)Oc3cc4c(cc32)OCO4)c1OC (stereo not given) the compound record lists GI50 as > 100 µM (inactive)

# compound COc1ccc(C[C@@H](C(=O)O[C@H](C)[C@H](NC(=O)[C@@H](CC(C)C)N(C)C(=O)C2CCCN2C(=O)[C@H](C)O)C(=O)N2CCCCNC(=O)[C@@H](C)C(=O)[C@H](C(C)C)OC(=O)C[C@H](O)[C@H]2CC(C)C)N(C)C(C)=O)cc1 (stereo not given in full) ; its GI50 = 9.84 µM (inactive)

For record `O=C(O/N=C1/CCC/C1=C\c1ccccc1)c1ccc(Cl)c(Cl)c1` the listed GI50 is > 100 µM (inactive)

// recorded GI50 for OCC(O)CNc1ccnc2cc(Cl)ccc12 (stereo not given) : > 100 µM (inactive)

The compound identified as `O=C(O)/C(Cc1ccnc2ccccc12)=N\O` registered its GI50 at > 100 µM (inactive)

compound `CC(C)=NNc1snnc1C(N)=O` , GI50 observed: > 100 µM (inactive)

Just so you know, measured GI50 for OC(Cc1cccc2ccccc12)CN1CCC(c2ccccc2)CC1 (stereo not given) came out at 12.3 µM (inactive)

Recorded result, CCOP(=O)(OCC)C(C(=O)OC)C(=O)C(=O)Nc1cccc(O)c1 (stereo not given) , GI50: > 100 µM (inactive)

Value of GI50 reported for the compound `CCOC(=O)c1c(SC(=O)c2ccc(OC)cc2)n(-c2ccccc2)c(=S)n(-c2ccccc2)c1=O` is > 100 µM (inactive)
